Recorded values, source patent US11560400B2.

# Tested on: MOLT-4
# Experiment notes: CellTiterGlo cell viability assay, MOLT-4
# Assay type: cell-based
# Assay conditions: Homo sapiens, MOLT-4, 72 h, absolute EC50, numeric values, read-out: Ab EC50
pEC50: −log10 of the molar value.
Metric: pEC50

[
  {
    "Compound": "C[C@H](NP(=O)(OC[C@@H]1C[C@H](O)[C@H](n2cnc3c(N)ncnc32)O1)Oc1ccccc1)C(=O)OCc1ccccc1 (stereo partly shown) [E, reference compound]",
    "Subject of test": "MOLT-4",
    "Metric": "pEC50",
    "Value reported": 5.28
  }
]

====

# Experiment notes: in vitro
# Assay conditions: human, hepatocytes, pH 7.3
# key: entry, value: half-life
Metric: half-life

[
  {
    "Compound": "C[C@H](NP(=O)(Oc1ccccc1)OP(=O)(O)OC[C@H]1O[C@@H](n2cnc3c(N)nc(Cl)nc32)[C@H](F)C1O)C(=O)OCc1ccccc1 (stereo partly drawn)",
    "Value reported": "20 to 100 min"
  },
  {
    "Compound": "C[C@H](NP(=O)(Oc1ccccc1)OP(=O)(O)OC[C@H]1O[C@@H](n2ccc(N)nc2=O)C(F)(F)C1O)C(=O)OCc1ccccc1 (stereo partly drawn)",
    "Value reported": "27 min"
  },
  {
    "Compound": "C[C@H](NP(=O)(Oc1ccccc1)OP(=O)(O)OC[C@@H]1C[C@H](OP(=O)(O)OP(=O)(N[C@@H](C)C(=O)OCc2ccccc2)Oc2ccccc2)[C@H](n2cnc3c(N)ncnc32)O1)C(=O)OCc1ccccc1 (stereo partly drawn)",
    "Value reported": "27 min"
  }
]

====

# key: entry, value: pEC50
# Test system: K562
# Experiment notes: CellTiterGlo cell viability assay, K562
# Format: cell-based
# Assay conditions: Homo sapiens; K562, 72 h, absolute EC50, numeric values; read-out: Ab EC50
pEC50: −log10 of the molar value.
Metric: pEC50

[
  {
    "Compound": "Nc1ncnc2c1ncn2[C@@H]1O[C@H](CO)C[C@H]1O [Cordycepin, reference compound]",
    "Comparison operator": "=",
    "Value reported": 3.93
  },
  {
    "Compound": "C[C@H](NP(=O)(Oc1ccccc1)OP(=O)(O)OC[C@@H]1C[C@H](O)[C@H](n2cnc3c(N)ncnc32)O1)C(=O)OCc1ccccc1 (some centres unmarked)",
    "Comparison operator": "=",
    "Value reported": 4.28
  },
  {
    "Compound": "C[C@H](NP(=O)(Oc1ccccc1)OP(=O)(O)OC[C@H]1O[C@@H](n2ccc(N)nc2=O)C(F)(F)C1O)C(=O)OCc1ccccc1 (some centres unmarked)",
    "Comparison operator": "<",
    "Value reported": 3.70
  },
  {
    "Compound": "C[C@H](NP(=O)(Oc1ccccc1)OP(=O)(O)OC[C@@H]1C[C@H](OP(=O)(O)OP(=O)(N[C@@H](C)C(=O)OCc2ccccc2)Oc2ccccc2)[C@H](n2cnc3c(N)ncnc32)O1)C(=O)OCc1ccccc1 (some centres unmarked)",
    "Comparison operator": "=",
    "Value reported": 5.04
  },
  {
    "Compound": "CC(C)OC(=O)[C@H](C)NP(=O)(Oc1ccccc1)OP(=O)(O)OC[C@H]1O[C@@H](n2cnc3c(N)nc(Cl)nc32)[C@H](F)C1O (some centres unmarked)",
    "Comparison operator": "<",
    "Value reported": 3.70
  }
]

====

# Tested on: RPMI-8226
# Experiment notes: CellTiterGlo cell viability assay, RPMI-8226
# Format: cell-based, Human
# Assay conditions: Homo sapiens, RPMI-8226, 72 h, Table 4 classes, read-out: Ab EC50
Metric: EC50

[
  {
    "Compound": "C[C@@H](NP(=O)(Oc1ccccc1)OP(=O)(O)OC[C@H]1O[C@@H](n2cnc3c(N)nc(Cl)nc32)[C@H](F)C1O)C(=O)OCC(C)(C)C (stereo partly drawn) [Example 14]",
    "Subject of test": "RPMI-8226",
    "Value reported": "> 10 µM"
  },
  {
    "Compound": "CCOP(=O)(N[C@@H](C)C(=O)OCc1ccccc1)OP(=O)(O)OC[C@H]1O[C@@H](n2cnc3c(N)nc(Cl)nc32)[C@H](F)C1O (stereo partly drawn) [Example 20]",
    "Subject of test": "RPMI-8226",
    "Value reported": "> 10 µM"
  },
  {
    "Compound": "COC(=O)[C@H](CCSC)NP(=O)(Oc1ccccc1)OP(=O)(O)OC[C@H]1O[C@@H](n2cnc3c(N)nc(Cl)nc32)C(F)[C@H]1O (stereo partly drawn) [Example 24]",
    "Subject of test": "RPMI-8226",
    "Value reported": "> 10 µM"
  },
  {
    "Compound": "C[C@H](NP(=O)(Oc1cccc2ccccc12)OP(=O)(O)OC[C@H]1O[C@@H](n2cnc3c(N)nc(Cl)nc32)[C@H](F)C1O)C(=O)OCC(C)(C)C (stereo partly drawn) [Example 13]",
    "Subject of test": "RPMI-8226",
    "Value reported": "> 10 µM"
  },
  {
    "Compound": "COC(=O)[C@H](C)NP(=O)(Oc1ccccc1)OP(=O)(O)OC[C@H]1O[C@@H](n2cnc3c(N)nc(Cl)nc32)[C@H](F)C1O (stereo partly drawn) [Example 16]",
    "Subject of test": "RPMI-8226",
    "Value reported": "> 10 µM"
  },
  {
    "Compound": "C[C@H](NP(=O)(Oc1ccccc1)OP(=O)(O)OC[C@H]1O[C@@H](n2cnc3c(N)nc(Cl)nc32)[C@H](F)C1O)C(=O)OCC(C)(C)C (stereo partly drawn) [Example 9]",
    "Subject of test": "RPMI-8226",
    "Value reported": "> 10 µM"
  }
]

====

# System: RPMI-8226
# Experiment notes: CellTiterGlo cell viability assay, RPMI-8226
# Assay type: cell-based, Human
# Assay conditions: RPMI-8226, 72 h, Table 4 classes; read-out: Ab EC50
pEC50: −log10 of the molar value.
Metric: pEC50

[
  {
    "Compound": "CCN(CC)CC.C[C@H](NP(=O)(Oc1cccc2ccccc12)OP(O)(=S)OC[C@H]1O[C@@H](n2cnc3c(N)nc(Cl)nc32)[C@@H](F)[C@@H]1O)C(=O)OCc1ccccc1 (stereo partly shown) [Example 26]",
    "Subject of test": "RPMI-8226",
    "Value reported": "5.30 to 6.00"
  }
]

====

# Tested on: KG-1
# Experiment notes: CellTiterGlo cell viability assay, KG-1
# Type: cell-based
# Assay conditions: Homo sapiens; KG-1, 72 h, absolute EC50, numeric values; read-out: Ab EC50
pEC50: −log10 of the molar value.

[
  {
    "Molecule": "CC(C)OC(=O)[C@H](C)NP(=O)(Oc1ccccc1)OP(=O)(O)OC[C@H]1O[C@@H](n2cnc3c(N)nc(Cl)nc32)[C@H](F)C1O (stereo partly shown)",
    "pEC50": 7.05
  }
]

====

# Test system: HT29
# Experiment notes: CellTiterGlo cell viability assay, HT29
# Type: cell-based
# Assay conditions: Homo sapiens, HT-29, 72 h, HT29, 72 h, absolute EC50, numeric values; read-out: Ab EC50
pEC50: −log10 of the molar value.
So basically: pEC50 at 6 or higher? That is 1. Lower than 6? That is 0.

[
  {
    "Compound": "C[C@H](NP(=O)(Oc1ccccc1)OP(=O)(O)OC[C@H]1O[C@@H](n2ccc(N)nc2=O)C(F)(F)C1O)C(=O)OCc1ccccc1 (stereo partly shown)",
    "Answer label": 1
  },
  {
    "Compound": "C[C@H](NP(=O)(Oc1ccccc1)OP(=O)(O)OC[C@@H]1C[C@H](O)[C@H](n2cnc3c(N)ncnc32)O1)C(=O)OCc1ccccc1 (stereo partly shown)",
    "Answer label": 0
  },
  {
    "Compound": "C[C@H](NP(=O)(OC[C@@H]1C[C@H](O)[C@H](n2cnc3c(N)ncnc32)O1)Oc1ccccc1)C(=O)OCc1ccccc1 (stereo partly shown) [E, reference compound]",
    "Answer label": 0
  },
  {
    "Compound": "C[C@H](NP(=O)(Oc1ccccc1)OP(=O)(O)OC[C@@H]1C[C@H](OP(=O)(O)OP(=O)(N[C@@H](C)C(=O)OCc2ccccc2)Oc2ccccc2)[C@H](n2cnc3c(N)ncnc32)O1)C(=O)OCc1ccccc1 (stereo partly shown)",
    "Answer label": 0
  },
  {
    "Compound": "C[C@H](NP(=O)(Oc1cccc2ccccc12)OP(=O)(O)OC[C@H]1O[C@@H](n2cc(F)c(=O)[nH]c2=O)CC1O)C(=O)OCc1ccccc1 (stereo partly shown)",
    "Answer label": 1
  },
  {
    "Compound": "CC(C)OC(=O)[C@H](C)NP(=O)(Oc1ccccc1)OP(=O)(O)OC[C@H]1O[C@@H](n2cnc3c(N)nc(Cl)nc32)[C@H](F)C1O (stereo partly shown)",
    "Answer label": 1
  }
]
